I'd appreciate it if you could supply Dmax values for the items below.
Biological target: SMARCA2 (Homo sapiens, UniProt P51531)
Sequence (P51531 whole entry): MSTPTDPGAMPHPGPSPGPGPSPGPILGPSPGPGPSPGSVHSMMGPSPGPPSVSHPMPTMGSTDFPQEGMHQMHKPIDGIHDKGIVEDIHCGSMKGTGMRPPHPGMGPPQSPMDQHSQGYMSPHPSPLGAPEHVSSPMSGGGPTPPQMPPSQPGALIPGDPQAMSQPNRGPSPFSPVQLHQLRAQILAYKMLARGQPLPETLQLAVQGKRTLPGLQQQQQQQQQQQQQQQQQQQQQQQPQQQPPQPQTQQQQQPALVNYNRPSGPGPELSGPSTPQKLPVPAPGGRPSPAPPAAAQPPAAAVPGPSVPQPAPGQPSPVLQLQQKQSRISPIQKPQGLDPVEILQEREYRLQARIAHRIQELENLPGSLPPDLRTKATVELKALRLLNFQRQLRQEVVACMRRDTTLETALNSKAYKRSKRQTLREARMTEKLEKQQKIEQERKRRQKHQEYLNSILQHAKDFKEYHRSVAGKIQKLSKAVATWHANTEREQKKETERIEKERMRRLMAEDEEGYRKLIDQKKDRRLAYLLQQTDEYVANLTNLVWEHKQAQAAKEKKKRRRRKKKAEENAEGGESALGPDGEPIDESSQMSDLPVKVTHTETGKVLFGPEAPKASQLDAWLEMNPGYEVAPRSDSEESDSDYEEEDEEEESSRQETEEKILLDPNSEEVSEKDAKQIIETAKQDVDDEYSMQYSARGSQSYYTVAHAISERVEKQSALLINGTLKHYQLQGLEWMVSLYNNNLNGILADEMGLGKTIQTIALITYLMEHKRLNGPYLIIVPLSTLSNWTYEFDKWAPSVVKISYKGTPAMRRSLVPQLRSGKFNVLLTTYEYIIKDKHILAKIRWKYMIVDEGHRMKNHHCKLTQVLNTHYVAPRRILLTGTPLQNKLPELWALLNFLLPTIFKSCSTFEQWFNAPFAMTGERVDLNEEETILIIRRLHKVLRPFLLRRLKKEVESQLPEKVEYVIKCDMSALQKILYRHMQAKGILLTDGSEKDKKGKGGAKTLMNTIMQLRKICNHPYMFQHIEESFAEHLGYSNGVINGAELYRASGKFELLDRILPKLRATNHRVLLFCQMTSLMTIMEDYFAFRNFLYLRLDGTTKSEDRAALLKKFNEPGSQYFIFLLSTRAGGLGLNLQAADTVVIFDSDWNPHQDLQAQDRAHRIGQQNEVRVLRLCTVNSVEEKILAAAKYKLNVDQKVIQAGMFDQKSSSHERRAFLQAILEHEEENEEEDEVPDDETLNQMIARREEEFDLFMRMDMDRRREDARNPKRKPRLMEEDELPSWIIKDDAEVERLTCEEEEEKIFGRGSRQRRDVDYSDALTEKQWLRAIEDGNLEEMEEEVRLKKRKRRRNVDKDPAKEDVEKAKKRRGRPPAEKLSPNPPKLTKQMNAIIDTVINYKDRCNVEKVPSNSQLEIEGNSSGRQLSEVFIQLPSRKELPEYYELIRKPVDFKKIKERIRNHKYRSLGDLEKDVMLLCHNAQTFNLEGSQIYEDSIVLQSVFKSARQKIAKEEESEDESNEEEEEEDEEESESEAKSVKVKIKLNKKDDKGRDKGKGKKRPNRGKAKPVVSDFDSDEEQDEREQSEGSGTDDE
Assay: SMARCA2 Western blot MV4-11 degradation
Format: cell-based
Set-up: SMARCA2 and SMARCA4 protein degradation in MV4-11 cells; endogenous in cells; host or cells: MV4-11
Conditions: MV4-11, MV4-11 cells, 24 h; read-out: SMARCA2 MSD MV411 degradation 24 h: average Dmax %
Procedure: Example 54. SMARCA2 and SMARCA 4 Western Blot MV4-11 Degradation Cells were seeded into 6-well plates (MV4-11: 4×10^6 cells/well/1 ml) and 1 ml of 2× compound solution was added into the well to make the final concentration and the plates were mixed well and incubated for 24 hours (No cytotoxicity was observed). The cell were collected with media and spun at 3000 rpm for 5 minutes. […] The membrane was washed three times with TBST, 5 minutes each and lastly the LiCOR was read. […]

IN: Please look at this compound and report its Dmax: Cc1ncsc1-c1ccc(CNC(=O)[C@@H]2C[C@@H](O)CN2C(=O)C(c2cc(N3CCC(CCN4CCC(c5cnc(N6C7CCC6CN(c6cc(-c8ccccc8O)nnc6N)C7)nc5)CC4)CC3)no2)C(C)C)cc1 (some centres unmarked)
OUT: > 90%

IN: Please look at this compound and report its Dmax: "Cc1ncsc1-c1ccc(CNC(=O)[C@@H]2C[C@@H](O)CN2C(=O)[C@@H](c2cc(N3CCC(CCN4CCC(c5cnc(N6C7CCC6CN(c6cc(-c8ccccc8O)nnc6N)C7)nc5)CC4)CC3)no2)C(C)C)cc1"
OUT: 50 to 70%

IN: Please look at this compound and report its Dmax: Cc1ncsc1-c1ccc(CNC(=O)[C@@H]2C[C@@H](O)CN2C(=O)[C@@H](NC(=O)C2CC3(C2)CC(N2CCC(c4cnc(N5CCN(c6cc(-c7ccccc7O)nnc6N)CC5)nc4)CC2)C3)C(C)(C)C)cc1 (some centres unmarked)
OUT: 50 to 70%

IN: Please look at this compound and report its Dmax: "Cc1ncsc1-c1ccc(CNC(=O)[C@@H]2C[C@@H](O)CN2C(=O)[C@H](c2cc(OCCCCN3CCC(c4cnc(N5C6CCC5CN(c5cc(-c7ccccc7O)nnc5N)C6)nc4)CC3)no2)C(C)C)cc1"
OUT: > 90%

IN: Please look at this compound and report its Dmax: Cc1ncsc1-c1ccc(CNC(=O)[C@@H]2C[C@@H](O)CN2C(=O)C(c2cc(O[C@H]3CC[C@H](N4CCC(c5cnc(N6C7CCC6CN(c6cc(-c8ccccc8O)nnc6N)C7)nc5)CC4)CC3)no2)C(C)C)cc1 (some centres unmarked)
OUT: > 90%
